- assay_target: Clade B BaL gp120 protein (HIV-1 Clade B, BaL)
- protocol_summary: BLI (Octet), IgG on anti-hIgG Fc sensor, gp120 analyte, 1:1 fit
I'd appreciate it if you could supply pKd values for the items below.
Formally, pKd is defined as -log10 of the concentration c, with c in mol/L.

Quick check: pKd of Germ6 (antibody, V domains shown) VH: ADLVQSGAVVKKPGDSVRVSCEAQGYRFPDYIIHWIRRAPGQGPEWMGWMNPMGGQVNIPWKFQGRVSMTRDTSIETAYLDLRGLKSDDTAVYYCVRDRSNGSGKRFESSNWFLDLWGRGTAVTVQS VL: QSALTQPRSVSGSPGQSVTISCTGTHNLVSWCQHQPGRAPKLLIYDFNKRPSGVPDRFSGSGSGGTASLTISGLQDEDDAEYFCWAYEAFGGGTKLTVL ?
9.04

Quick check: pKd of NglycoND (antibody, V domains shown) VH: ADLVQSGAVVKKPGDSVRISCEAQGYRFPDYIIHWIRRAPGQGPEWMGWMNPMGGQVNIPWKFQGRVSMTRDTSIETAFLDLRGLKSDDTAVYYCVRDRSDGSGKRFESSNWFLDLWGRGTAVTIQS VL: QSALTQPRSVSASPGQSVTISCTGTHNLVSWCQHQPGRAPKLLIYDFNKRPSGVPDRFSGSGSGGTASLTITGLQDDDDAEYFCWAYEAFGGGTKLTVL ?
7.73
